# protein stability index listing for each entry below
B1: WDR41 (parent)
chain: WTMQAYERNFWDPSPQLDTQQEIK

variants of: B1; test: protein stability index of a GFP-peptide fusion (GPS, HEK-293T) (PSI 1-6); higher = more stable; details: c terminus: a fixed tail appended;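 also: lentivirally expressed fusions sorted by FACS into six bins by GFP to DsRed ratio, PSI derived from sequencing read proportions per bin multiplied by bin number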

sequence.chain	protein stability index
WTMQAYERNFDDPSPQLDTQQEIK [W11D]	4.47
WTMQAYERNFWDWSPQLDTQQEIK [P13W]	1.76
WTMQAYERNFWCPSPQLDTQQEIK [D12C]	2.25
WTMQAYERAFWDPSPQLDTQQEIK [N9A]	2.08
WTMQAYERNFWDESPQLDTQQEIK [P13E]	3.17
WTMQAYERNFWDPSPQLDTQCEIK [Q21C]	2.12
WTMQAYERNFWDPSPQLDTYQEIK [Q20Y]	2.07
WCMQAYERNFWDPSPQLDTQQEIK [T2C]	2.15
WTMQARERNFWDPSPQLDTQQEIK [Y6R]	3.58
WTMQAYERNFWDPSPQRDTQQEIK [L17R]	3.23
WTMQAYERNFWDPSPQLDTQQEDK [I23D]	3.61
WTMQAYCRNFWDPSPQLDTQQEIK [E7C]	1.77
WTMQAYYRNFWDPSPQLDTQQEIK [E7Y]	2.26
WTMQAYERNFQDPSPQLDTQQEIK [W11Q]	3.93
WTMQAYERNFWDPSPGLDTQQEIK [Q16G]	2.83
WTMQAYERNFWDASPQLDTQQEIK [P13A]	2.11
WTMQAYERNFWDHSPQLDTQQEIK [P13H]	2.33
WTMQAYERNFWDPSPQLDTQGEIK [Q21G]	2.62
WTMQAYKRNFWDPSPQLDTQQEIK [E7K]	2.94
WTMQAYERNFWDPSPQLSTQQEIK [D18S]	2.23
WTMQAYERNFWDPSPQLDTQQEMK [I23M]	2.18
WTMQAYERNFWDPSPQLNTQQEIK [D18N]	2.17
WTMQAYERNFWDPSPQLDTQLEIK [Q21L]	1.92
WTMQAYERNFWDPSPQKDTQQEIK [L17K]	2.84
WTMQAYERNYWDPSPQLDTQQEIK [F10Y]	3.38
WTMQAYENNFWDPSPQLDTQQEIK [R8N]	3.41
WTMQAYERNFWDPSWQLDTQQEIK [P15W]	1.75
WTMQAYERNFWDPSPQLDTQPEIK [Q21P]	2.66
WTMQAYERNFWDPSPVLDTQQEIK [Q16V]	2.03
WTMQAYERNFWDPSPQLDTQEEIK [Q21E]	2.56
WTMQAYERNFWDMSPQLDTQQEIK [P13M]	2.34
WTMQAYEREFWDPSPQLDTQQEIK [N9E]	3.29
WTMKAYERNFWDPSPQLDTQQEIK [Q4K]	1.5
WTMQAYERNFWDPSPPLDTQQEIK [Q16P]	2.4
WTMQAYERNWWDPSPQLDTQQEIK [F10W]	2.77
WTMQAYERNFWDPSPRLDTQQEIK [Q16R]	2.14
WTMQAYERNFWDPSPKLDTQQEIK [Q16K]	2.42
WTMQAYERNFWDLSPQLDTQQEIK [P13L]	3.3
WTMQAYERNQWDPSPQLDTQQEIK [F10Q]	4.61
TTMQAYERNFWDPSPQLDTQQEIK [W1T]	4.25
WTMQAYERNFWDPSPQLDTQQEQK [I23Q]	3.15
WTMGAYERNFWDPSPQLDTQQEIK [Q4G]	3.34
WTMQAYERNFWDPSPQLDTQKEIK [Q21K]	2.28
WTMQAYERNFWDPSPQLDTQQEII [K24I]	1.98
WTMQAQERNFWDPSPQLDTQQEIK [Y6Q]	2.83
WTMMAYERNFWDPSPQLDTQQEIK [Q4M]	2.92
